Reference source: ChEMBL document CHEMBL4229455

tested on: RXF 393; assay: Cytotoxicity against human RXF393 cells assessed as cell growth at 10 uM after 48 hrs by SRB assay relative to control; type: functional; details: RXF 393, 48 h, read-out: Activity
Label Fulfilled when growth at 10 µM is strictly below 90%; otherwise label Not fulfilled.

Worked set:
>  <SMILES_STRUCTURE>
Cn1cc(C2=C(c3cn(CCCCCC(=O)O)c4ccccc34)C(=O)N(O)C2=O)c2ccccc21

>  <LABEL_VALUE>
Not fulfilled

$$$$
>  <SMILES_STRUCTURE>
Cn1cc(C2=C(c3c[nH]c4ccccc34)C(=O)N(O)C2=O)c2ccccc21

>  <LABEL_VALUE>
Fulfilled

$$$$
>  <SMILES_STRUCTURE>
CC(C)n1cc(C2=C(c3c[nH]c4ccccc34)C(=O)N(O)C2=O)c2ccccc21

>  <LABEL_VALUE>
Not fulfilled

$$$$

Take the compound Cn1cc(C2=C(c3cn(C)c4ccccc34)C(=O)N(O)C2=O)c2ccccc21 and say whether its growth at 10 µM is less than 90%.
Fulfilled

Take the compound N#CCCCCCn1cc(C2=C(c3cn(CCCCCC#N)c4ccccc34)C(=O)NC2=O)c2ccccc21 and say whether its growth at 10 µM is less than 90%.
Fulfilled

Take the compound O=C1C2=C(C(=O)N1O)c1cn(c3ccccc13)CCCCCCn1cc2c2ccccc21 and say whether its growth at 10 µM is less than 90%.
Not fulfilled

Take the compound O=C(O)CCCCCn1cc(C2=C(c3c[nH]c4ccccc34)C(=O)N(O)C2=O)c2ccccc21 and say whether its growth at 10 µM is less than 90%.
Not fulfilled

* * *

biological target: Glycogen synthase kinase-3 (Sus scrofa) (UniProt B2LUN4+I6LNT8); assay: Inhibition of domestic porcine brain full length GSK-3alpha/beta assessed as residual activity at 10 uM using GS-1 as substrate in presence of [gamma-33P]ATP; settings: Sus scrofa domesticus
QUANTITY_KIND: Activity
Could you kindly put the unit after your number?

Give the reported value of Activity for this record: Cn1cc(C2=C(c3cn(CCCCCC#N)c4ccccc34)C(=O)N(O)C2=O)c2ccccc21
8%

Give the reported value of Activity for this record: CC(C)n1cc(C2=C(c3cn(C)c4ccccc34)C(=O)N(O)C2=O)c2ccccc21
-16%

Give the reported value of Activity for this record: O=C1C2=C(C(=O)N1O)c1cn(c3ccccc13)CCCCCCn1cc2c2ccccc21
48%

Give the reported value of Activity for this record: Cn1cc(C2=C(c3cn(C)c4ncccc34)C(=O)NC2=O)c2ccccc21
-21%

Give the reported value of Activity for this record: Cn1cc(C2=C(c3cn(CCCCCC(=O)O)c4ccccc34)C(=O)N(O)C2=O)c2ccccc21
2%

* * *

biological target: UniProtKB Q96GD4; assay: Inhibition of recombinant full length human aurora B expressed in baculovirus infected Sf9 insect cells using MBP as substrate in presence of [gamma-33P]ATP
Sequence (Q96GD4 whole entry): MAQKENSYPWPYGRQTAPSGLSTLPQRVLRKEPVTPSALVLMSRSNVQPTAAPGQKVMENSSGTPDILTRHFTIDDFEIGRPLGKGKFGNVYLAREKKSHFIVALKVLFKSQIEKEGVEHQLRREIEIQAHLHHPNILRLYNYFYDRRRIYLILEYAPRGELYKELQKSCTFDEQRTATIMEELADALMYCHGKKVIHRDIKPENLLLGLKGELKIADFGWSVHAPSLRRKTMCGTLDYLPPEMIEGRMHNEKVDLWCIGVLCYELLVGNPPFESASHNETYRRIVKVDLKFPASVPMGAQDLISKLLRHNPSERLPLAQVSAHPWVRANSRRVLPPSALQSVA
QUANTITY_KIND: IC50

Give the reported value of IC50 for this record: CCn1cc(C2=C(c3cn(C(C)C)c4ccccc34)C(=O)N(O)C2=O)c2ccccc21
> 10 µM

Give the reported value of IC50 for this record: Cn1cc(C2=C(c3cn(CCCCCC#N)c4ccccc34)C(=O)N(O)C2=O)c2ccccc21
> 10 µM

Give the reported value of IC50 for this record: Cn1cc(C2=C(c3c[nH]c4ccccc34)C(=O)N(O)C2=O)c2ccccc21
> 10 µM

Give the reported value of IC50 for this record: CC(C)n1cc(C2=C(c3c[nH]c4ccccc34)C(=O)N(O)C2=O)c2ccccc21
> 10 µM

Give the reported value of IC50 for this record: Cn1cc(C2=C(c3cn(C)c4ccccc34)C(=O)N(O)C2=O)c2ccccc21
> 10 µM

Give the reported value of IC50 for this record: N#CCCCCCn1cc(C2=C(c3cn(CCCCCC#N)c4ccccc34)C(=O)NC2=O)c2ccccc21
> 10 µM

Give the reported value of IC50 for this record: Cn1cc(C2=C(c3cn(CCCCCC(=O)O)c4ccccc34)C(=O)N(O)C2=O)c2ccccc21
> 10 µM

Give the reported value of IC50 for this record: O=C1C(c2c[nH]c3ccccc23)=C(c2c[nH]c3ncccc23)C(=O)N1O
> 10 µM

Give the reported value of IC50 for this record: CC(C)n1cc(C2=C(c3cn(C)c4ccccc34)C(=O)N(O)C2=O)c2ccccc21
> 10 µM

Give the reported value of IC50 for this record: O=C1C2=C(C(=O)N1O)c1cn(c3ccccc13)CCCCCCn1cc2c2ccccc21
> 10 µM

Give the reported value of IC50 for this record: Cn1cc(C2=C(c3cn(C)c4ncccc34)C(=O)NC2=O)c2ccccc21
> 10 µM

Give the reported value of IC50 for this record: N#CCCCCCn1cc(C2=C(c3cn(CCCCCC#N)c4ccccc34)C(=O)N(O)C2=O)c2ccccc21
> 10 µM

Give the reported value of IC50 for this record: CCn1cc(C2=C(c3cn(C)c4ccccc34)C(=O)N(O)C2=O)c2ccccc21
> 10 µM

Give the reported value of IC50 for this record: O=C(O)CCCCCn1cc(C2=C(c3c[nH]c4ccccc34)C(=O)N(O)C2=O)c2ccccc21
> 10 µM
